Hey, just so you know, these numbers are from patent US10570116B2.

subject.of.test: TNKS2 (Homo sapiens (Human), UniProt Q9H2K2)
test.name: biochemical
Format: biochemical
reported.conditions: GST-tagged Tnks-2 (873-1166 aa); read-out: IC50 [M] TNKS2 ELISA
Parameter: IC50. Scope: all listed entries.
Dear colleague, please return just the value in M, with no unit written.

Cn1cc(C(=O)C2CCN(C(=O)COCc3nc4ccccc4c(=O)[nH]3)CC2)cn1 [Compound C24]
1.2e-08
COc1ccc(C(=O)C2CCN(C(=O)COCc3nc4c(F)cc(F)cc4c(=O)[nH]3)CC2)cc1 [Compound C26]
3e-09
COC(=O)c1cccc(C(=O)C2CCN(C(=O)CC(C)(C)Cc3nc4ccccc4c(=O)[nH]3)CC2)c1 [Compound C34]
5e-10
COc1ccc(C(=O)C2CCN(C(=O)CC(C)(C)Cc3nc4c(cnn4C)c(=O)[nH]3)CC2)cn1 [Compound C21]
2.1e-09

Exam item: Return value of IC50 for input CC(C)(CC(=O)N1CCC(C(=O)c2ccc(C(=O)O)cc2)CC1)Cc1nc2ccccc2c(=O)[nH]1 [Compound C33] , no commentary.
Marked response: 4.5e-10

Exam item: Consider the molecule COc1ccc(C(=O)C2CCN(C(=O)COCc3nc4ccccc4c(=O)[nH]3)CC2)cc1 [Compound C23] and give its recorded IC50.
Marked response: 2.1e-09

Exam item: Identify measured IC50 associated with Cc1cc(F)cc2c(=O)[nH]c(C[C@@H](C)CC(=O)N3CCC(C(=O)c4cccc(C(=O)O)c4)CC3)nc12 [Compound C46]
Marked response: 2.8e-09

----------
subject.of.test: TNKS2 (Homo sapiens (Human), UniProt Q9H2K2)
test.name: biochemical
Format: biochemical
quantity.measured: IC50 (nM)
The answer is to be given in nM; state only the numeric part.

Exam item: Give the observed IC50 of Cn1cc(C(=O)C2CCN(C(=O)COCc3nc4c(F)cc(F)cc4c(=O)[nH]3)CC2)cn1 for TNKS2 (Homo sapiens (Human), UniProt Q9H2K2).
Marked response: 13

----------
subject.of.test: TNKS1 (Homo sapiens (Human), UniProt O95271)
test.name: biochemical
Type: biochemical
reported.conditions: GST-tagged Tnks-1 (1023-1327 aa); read-out: IC50 [M] TNKS1 ELISA
quantity.measured: IC50 (M)
Give the number; M is assumed, so skip it.

CN(C)Cc1ccc(C(=O)C2CCN(C(=O)CC(C)(C)Cc3nc4ccccc4c(=O)[nH]3)CC2)cc1
1.4e-08
Cn1cc(C(=O)C2CCN(C(=O)CC(C)(C)Cc3nc4c(cnn4C)c(=O)[nH]3)CC2)cn1
9.2e-10
Cn1cc(C(=O)C2CCN(C(=O)CCC(C)(C)c3nc4ccccc4c(=O)[nH]3)CC2)cn1
6.3e-08

Exam item: Consider the compound CN(CCc1nc2ccccc2c(=O)[nH]1)C(=O)N1CCC(C(=O)c2cnn(C)c2)CC1 . State its measured IC50.
Marked response: 3e-09
